Provide the recorded glomerular width for the entries that follow.
Tested on: Danio rerio Tg(wt1b:EGFP) embryo, pronephros
Assay: glomerular width (mean of left and right), fold change vs DMSO control; higher = wider glomerulus
Details: 25 µM; exposure: 24-48 hpf
Where a name gives a salt, the structure may show the parent alone.

The compound listed as CC(=O)Oc1cc(C(F)(F)F)ccc1C(=O)O has a reported glomerular width of 0.901

Record NC(=O)N1c2ccccc2CC(=O)c2ccccc21 [Oxcarbazepine] , field glomerular width: 1

compound CCOC(=O)Nc1ccc2c(c1)N(C(=O)CCN1CCOCC1)c1ccccc1S2 [Moricizine hydrochloride] , glomerular width observed: 1.04

Form: compound = Cc1ncc([N+](=O)[O-])n1CC(C)O (stereo not drawn) ; glomerular width = 0.984

response.value for O=C(O)/C=C/c1ccc(Cn2ccnc2)cc1 [Ozagrel hydrochloride] (field: glomerular width) = 1.01

glomerular width recorded for this compound, O=C1CCC(N2C(=O)c3ccccc3C2=O)C(=O)N1 (stereo not drawn) [Thalidomide] , is 1.21

Query COc1cccc2c1C(=O)c1c(O)c3c(c(O)c1C2=O)C[C@@](O)(C(C)=O)C[C@@H]3O[C@H]1C[C@H](N)[C@H](O)[C@H](C)O1 [Daunorubicin hydrochloride] yields glomerular width of 1.03

glomerular width reading for CCCCCNC(=N)N/N=C/c1c[nH]c2ccc(OC)cc12 [Tegaserod maleate] : 0.997

Entry C[C@H]1NC(=O)NC1=O ; glomerular width = 0.991

Reported glomerular width of CN(N=O)C(=O)N[C@@H](C=O)[C@@H](O)[C@H](O)[C@H](O)CO : 1.06

Per the records, this compound ( CCOC(=O)O[C@]1(C(=O)OCCl)CC[C@H]2[C@@H]3CCC4=CC(=O)C=C[C@]4(C)[C@H]3[C@@H](O)C[C@@]21C [Loteprednol etabonate] ) has glomerular width equal to 0.884

get_value(item= O=c1n(CCCN2CCN(c3cccc(Cl)c3)CC2)nc2ccccn12 [Trazodone hydrochloride] , readout=glomerular width) returns 0.97

Data point: Cc1cc2cc3c(C)cc(=O)oc3c(C)c2o1 ; glomerular width = 1.02

In plain terms, CN1CCN(CCCN2c3ccccc3Sc3ccc(C(F)(F)F)cc32)CC1 [Trifluoperazine dihydrochloride] has a documented glomerular width of 0.953

Record O=C(OCCOCCO)c1ccccc1Nc1cccc(C(F)(F)F)c1 [Etofenamate] , field glomerular width: 0.684

// glomerular width lookup, compound = CC(C)NC[C@@H](O)COc1ccc(CC(N)=O)cc1 [(R)-(+)-Atenolol] , result: 0.977

The value of glomerular width measured for the compound Cc1onc(-c2ccccc2)c1-c1ccc(S(N)(=O)=O)cc1 turned out to be 1.13

glomerular width in this record for CN(C)CCOC(=O)COc1ccc(Cl)cc1 [Meclofenoxate hydrochloride] : 1.02
